species on record: Rattus norvegicus; test: Compound was tested for hepatoprotective activity against D-GalN-induced cytotoxicity in primary cultured rat hepatocytes at 3 uM dose; format: functional; details: Hepatocyte
result_type: inhibition at 3 µM
Answer shape: numeric part, then the unit.

Input: // lookup inhibition at 3 µM for `C[C@H](CCc1ccc(O)cc1)O[C@@H]1O[C@H](CO[C@@H]2OC[C@](O)(CO)[C@H]2O)[C@H](O)[C@@H](O)[C@H]1O`
Output: 1.4%

Input: // lookup inhibition at 3 µM for `COc1cc([C@H]2c3c(cc(OC)c(O)c3OC)C[C@@H](CO)[C@@H]2CO[C@H]2O[C@@H](CO)[C@@H](O)[C@H](O)[C@@H]2O)cc(OC)c1O`
Output: 22.3%

Input: // lookup inhibition at 3 µM for `C[C@H](CCc1ccc(O)cc1)O[C@@H]1O[C@H](CO)[C@@H](O)[C@H](O)[C@H]1O`
Output: 4.7%

Input: // lookup inhibition at 3 µM for Oc1ccc([C@H]2Oc3cc(OC4OCC(O)C(O)C4O)cc(O)c3C[C@@H]2O)cc1O (stereo not given in full)
Output: 4.8%

Input: // lookup inhibition at 3 µM for `OC[C@H]1O[C@@H](O[C@@H](CCc2ccc(O)cc2)C[C@@H](O)CCc2ccc(O)cc2)[C@H](O)[C@H](O)[C@H]1O`
Output: 9.9%

----------
organism: Rattus norvegicus; assay: Compound was tested for hepatoprotective activity against D-GalN-induced cytotoxicity in primary cultured rat hepatocytes at 10 uM dose; format: functional; conditions: Hepatocyte
result_type: inhibition at 10 µM (%)
Write the value in % as a bare number.

Input: // lookup inhibition at 10 µM for `C[C@@H](CCc1ccc(O)cc1)O[C@@H]1O[C@H](CO[C@@H]2O[C@@H](CO)[C@H](O)[C@H]2O)[C@@H](O)[C@H](O)[C@H]1O`
Output: 3.6

Input: // lookup inhibition at 10 µM for `OC[C@H]1O[C@@H](O[C@@H](CCc2ccc(O)cc2)C[C@H](O)CCc2ccc(O)cc2)[C@H](O)[C@H](O)[C@H]1O`
Output: 14.1

Input: // lookup inhibition at 10 µM for `OC[C@H]1O[C@@H](O[C@@H](CCc2ccc(O)cc2)C[C@@H](O)CCc2ccc(O)cc2)[C@H](O)[C@H](O)[C@H]1O`
Output: 7.4

Input: // lookup inhibition at 10 µM for `C[C@H](CCc1ccc(O)cc1)O[C@@H]1O[C@H](CO[C@@H]2OC[C@](O)(CO)[C@H]2O)[C@H](O)[C@@H](O)[C@H]1O`
Output: -1.6

----------
species: Rattus norvegicus; test: Compound was tested for hepatoprotective activity against D-GalN-induced cytotoxicity in primary cultured rat hepatocytes at 30 uM dose; assay type: functional; settings: Hepatocyte
Assign class by inhibition at 30 µM: not lower than 8% means 1.0; lower than 8% means 0.0.

Input: Is it the case that `C[C@@H](CCc1ccc(O)cc1)O[C@@H]1O[C@H](CO[C@@H]2O[C@@H](CO)[C@H](O)[C@H]2O)[C@@H](O)[C@H](O)[C@H]1O` has inhibition at 30 µM reaching or exceeding 8%?
Output: 1.0

Input: Is it the case that Oc1ccc([C@H]2Oc3cc(OC4OCC(O)C(O)C4O)cc(O)c3C[C@@H]2O)cc1O (stereo not given in full) has inhibition at 30 µM reaching or exceeding 8%?
Output: 1.0

Input: Is it the case that `C[C@H](CCc1ccc(O)cc1)O[C@@H]1O[C@H](CO)[C@@H](O)[C@H](O)[C@H]1O` has inhibition at 30 µM reaching or exceeding 8%?
Output: 0.0

Input: Is it the case that `C[C@H](CCc1ccc(O)cc1)O[C@@H]1O[C@H](CO[C@@H]2OC[C@](O)(CO)[C@H]2O)[C@H](O)[C@@H](O)[C@H]1O` has inhibition at 30 µM reaching or exceeding 8%?
Output: 0.0

Input: Is it the case that `OC[C@H]1O[C@@H](O[C@@H](CCc2ccc(O)cc2)C[C@@H](O)CCc2ccc(O)cc2)[C@H](O)[C@H](O)[C@H]1O` has inhibition at 30 µM reaching or exceeding 8%?
Output: 1.0

Data origin: ChEMBL document CHEMBL1130638
